# tgt: human MRGPRX2 (Homo sapiens)
# testMethodNotes: MRGPRX2 Activity Assay (IP-1 HTRF, antagonist mode)
# assayContext: FlpIn TRex-MRGPRX2-HEK293 cells; versus 1 μM Cortistatin-14 agonist; 30 minutes preincubation
quantityName: pIC50
By convention, pIC50 is the negative base-10 log of a molar concentration.

molecule="C[C@@H](C(=O)Nc1cn(Cc2cc(F)cc(F)c2)cn1)N1CCC(F)(F)[C@H](c2c[nH]c(=O)c(CO)c2)C1 (single isomer, unassigned) [Compound 73]" quantityname=pIC50 recordedmeasurement=5.07
molecule="C[C@@H](C(=O)Nc1cn(Cc2cc(Cl)ccc2F)cn1)N1CCC(F)(F)[C@@H](c2cc[n+]([O-])cc2)C1 [Compound 33]" quantityname=pIC50 recordedmeasurement=7.52
molecule="O=C(Nc1cn(Cc2cc(F)cc(F)c2)cn1)[C@@H]1C(F)(F)C12CCC2 [Compound 29]" quantityname=pIC50 recordedmeasurement=6.66
molecule="C[C@@H](C(=O)Nc1cn(Cc2cc(F)c(Cl)c(F)c2)cn1)N1CCC(F)(F)[C@@H](c2cc[n+]([O-])cc2)C1 [Compound 44]" quantityname=pIC50 recordedmeasurement=6.62
molecule="C[C@@H](C(=O)Nc1cn(Cc2ccc(F)c(F)c2)cn1)N1CCC(F)(F)[C@@H](c2cc[n+]([O-])cc2)C1 [Compound 46]" quantityname=pIC50 recordedmeasurement=6.68
molecule="C[C@@H](C(=O)Nc1cn(Cc2ccc(F)cc2)cn1)N1CCC(F)(F)[C@@H](c2cc[n+]([O-])cc2)C1 [Compound 36]" quantityname=pIC50 recordedmeasurement=6.68

For C[C@@H](C(=O)Nc1cc2n(n1)CC[C@H]2c1cc(F)cc(F)c1)N1CCC(F)(F)[C@@H](c2cc[n+]([O-])cc2)C1 (single isomer, unassigned) [Compound 550] , write its pIC50. 8.22

---

# tgt: human MRGPRX2 (Homo sapiens, UniProt Q96LB1)
# Sequence (Q96LB1 1-330): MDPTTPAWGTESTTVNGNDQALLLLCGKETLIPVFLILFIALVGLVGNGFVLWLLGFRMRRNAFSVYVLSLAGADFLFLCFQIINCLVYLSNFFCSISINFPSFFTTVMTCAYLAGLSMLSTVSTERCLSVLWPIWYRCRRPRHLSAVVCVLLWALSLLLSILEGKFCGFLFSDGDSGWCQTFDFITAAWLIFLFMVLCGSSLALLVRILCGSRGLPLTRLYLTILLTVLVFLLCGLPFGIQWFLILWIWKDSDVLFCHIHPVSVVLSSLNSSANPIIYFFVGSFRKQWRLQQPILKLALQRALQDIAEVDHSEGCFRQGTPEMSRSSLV
# testMethodNotes: MRGPRX2 Activity Assay (IP-1 HTRF, antagonist mode)
# assayContext: FlpIn TRex-MRGPRX2-HEK293 cells; versus 1 μM Cortistatin-14 agonist; 30 minutes preincubation
# Protocol: FlpIn TRex-MRGPRX2-HEK293 cells (herein TRex-MRPGRX2-HEK) stably transfected to express human MRGPRX2 were maintained at 37° C. with 5% CO2 and grown in DMEM supplemented with 10% FBS, 1% L-Glutamate, 1% penicillin/streptomycin, 100 ug/mL Hygromycin B, and 15 ug/mL Blasticidin. […] Antagonist equilibrium was established with 30 minutes preincubation, followed by no wash, direct addition, and stimulation of agonist for 1 hour at 37° C./5% CO2. […] The plate was read on an EnVision XCite plate reader. […]
Listed next: entries and their corresponding pIC50.
By convention, pIC50 is the negative base-10 log of a molar concentration.

These recorded examples may help you get a feel for the data.
compound="C[C@@H](C(=O)Nc1cn2c(n1)CC[C@H]2c1cc(F)cc(F)c1)N1CCC(F)(F)[C@@H](c2cc[n+]([O-])cc2)C1 (single isomer, unassigned)" recordedmeasurement=4.86
compound="C[C@@H](C(=O)Nc1noc(Cc2cc(F)cc(F)c2)n1)N1CCC(F)(F)[C@@H](c2cc[n+]([O-])cc2)C1 (single isomer, unassigned)" recordedmeasurement=7.12

Now for the compound whose pIC50 we want.
For C[C@H](C(=O)Nc1cn(Cc2cc(F)cc(F)c2)c(C(F)(F)F)n1)N1CCC(F)(F)[C@@H](c2cc[n+]([O-])cc2)C1 (single isomer, unassigned) , write its pIC50. 7.89
